These entries and their values trace back to patent US20220298138A1.

target-of-assay: Human Factor XIIa (Homo sapiens, UniProt P00748)
Construct: purchased Enzyme Research Laboratories
Sequence (P00748 373-615 limits assumed): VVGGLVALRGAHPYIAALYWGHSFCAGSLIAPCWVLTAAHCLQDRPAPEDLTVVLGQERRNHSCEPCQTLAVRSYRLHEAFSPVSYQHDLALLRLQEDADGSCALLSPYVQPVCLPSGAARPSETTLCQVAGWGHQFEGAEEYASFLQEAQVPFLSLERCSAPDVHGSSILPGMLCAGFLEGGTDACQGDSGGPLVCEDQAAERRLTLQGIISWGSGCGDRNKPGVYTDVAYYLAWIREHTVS
method-notes: Factor XIIa inhibitory activity in vitro (fluorogenic substrate H-DPro-Phe-Arg-AFC)
Format: biochemical
stated-conditions: 25° C., class symbols, read-out: Human FXIIa IC50
pIC50: −log10 of the molar value.
The following compounds are shown together with reported pIC50 values.
parameter: pIC50

[
  {
    "compound": "Nc1nccc2cc(CNC(=O)[C@H](Cc3ccc(F)c(F)c3)NC(=O)C[C@H]3CCCO3)ccc12 [Example 3.36]",
    "parameter": "pIC50",
    "result": "4.40 to 5.00"
  },
  {
    "compound": "N[C@H](CCCCN1CCc2ccccc21)C(=O)N1CC[C@H]1C(=O)NCc1ccc2[nH]cc(Cl)c2c1 [Example 10.14]",
    "parameter": "pIC50",
    "result": "4.40 to 5.00"
  },
  {
    "compound": "CN(C)C(C)(C)C(=O)N[C@@H](Cc1ccc(F)c(F)c1)C(=O)NCc1ccc2c(N)nccc2c1 [Example 0.86]",
    "parameter": "pIC50",
    "result": "5.52 to 6.00"
  },
  {
    "compound": "C[C@H](NC(=O)[C@H](N)COc1ccccc1)C(=O)NCc1ccc2c(N)nccc2c1 [Example 6.17]",
    "parameter": "pIC50",
    "result": "4.40 to 5.00"
  },
  {
    "compound": "CC(C)N1CCC[C@@H]1C(=O)N[C@@H](Cc1ccc(F)c(F)c1)C(=O)NCc1ccc2c(N)nccc2c1 [Example 44.01]",
    "parameter": "pIC50",
    "result": "6.00 to 6.55"
  },
  {
    "compound": "Cc1cccnc1C(=O)N[C@@H](Cc1ccc(F)c(F)c1)C(=O)NCc1ccc2c(N)nccc2c1 [Example 0.50]",
    "parameter": "pIC50",
    "result": "5.00 to 5.52"
  },
  {
    "compound": "C[C@H](NC(=O)CN1[C@H](C)CCC[C@@H]1C)C(=O)NCc1ccc2c(N)nccc2c1 [Example 39.02]",
    "parameter": "pIC50",
    "result": "5.00 to 5.52"
  }
]

----------
target-of-assay: Human FXIa (Homo sapiens, UniProt P03951)
Construct: Human FXIa (Enzyme Research Laboratories) was incubated; purchased Enzyme Research Laboratories
Sequence (P03951 388-625 limits assumed): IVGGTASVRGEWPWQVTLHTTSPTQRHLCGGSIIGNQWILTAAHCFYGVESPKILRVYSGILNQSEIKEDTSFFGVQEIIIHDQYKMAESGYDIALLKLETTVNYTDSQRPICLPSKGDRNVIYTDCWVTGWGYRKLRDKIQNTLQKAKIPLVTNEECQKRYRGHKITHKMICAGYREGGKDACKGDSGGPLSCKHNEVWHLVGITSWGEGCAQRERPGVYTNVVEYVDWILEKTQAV
Sequence (P03951 19-387 partner limits assumed): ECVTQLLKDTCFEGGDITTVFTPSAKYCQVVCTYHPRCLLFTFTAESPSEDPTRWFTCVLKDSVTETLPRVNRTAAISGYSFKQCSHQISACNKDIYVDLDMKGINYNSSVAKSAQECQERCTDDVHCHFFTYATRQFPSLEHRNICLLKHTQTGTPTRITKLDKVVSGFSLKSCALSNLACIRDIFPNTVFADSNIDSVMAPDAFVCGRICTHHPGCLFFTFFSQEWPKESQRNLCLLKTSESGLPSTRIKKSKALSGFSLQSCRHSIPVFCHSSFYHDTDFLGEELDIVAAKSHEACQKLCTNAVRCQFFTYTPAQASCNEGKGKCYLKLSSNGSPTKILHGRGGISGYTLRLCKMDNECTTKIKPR
method-notes: FXIa inhibitory activity in vitro (fluorogenic substrate Z-Gly-Pro-Arg-AFC), selectivity
Type: biochemical
stated-conditions: category scale, 25° C.
The following compounds are shown together with reported IC50 values.
parameter: IC50

[
  {
    "input-smiles": "C[C@H](NC(=O)[C@H](O)CCc1ccccc1)C(=O)NCc1ccc2c(N)nccc2c1",
    "parameter": "IC50",
    "result": "10 to 40 µM"
  },
  {
    "input-smiles": "CC(C)N[C@H](CCc1ccccc1)C(=O)N[C@@H](C)C(=O)NCc1ccc2[nH]cc(Cl)c2c1",
    "parameter": "IC50",
    "result": "10 to 40 µM"
  },
  {
    "input-smiles": "CC(C)N[C@H](CCc1ccccc1)C(=O)N[C@@H](C)C(=O)NCc1cc2c(N)nccc2s1",
    "parameter": "IC50",
    "result": "> 40 µM"
  },
  {
    "input-smiles": "CC(C)N[C@H](CCCCN1CCCCC1)C(=O)N[C@@H](Cc1ccc2ccccc2c1)C(=O)NCc1ccc2c(N)nccc2c1",
    "parameter": "IC50",
    "result": "10 to 40 µM"
  },
  {
    "input-smiles": "N[C@H](CCCCN1CCCC(F)(F)C1)C(=O)N1CC[C@H]1C(=O)NCc1ccc2[nH]cc(Cl)c2c1",
    "parameter": "IC50",
    "result": "> 40 µM"
  },
  {
    "input-smiles": "C[C@@H]1CCC[C@H](C)N1CC(=O)NC1(C(=O)NCc2ccc3c(N)nccc3c2)CC1",
    "parameter": "IC50",
    "result": "> 40 µM"
  },
  {
    "input-smiles": "C[C@H](NC(=O)[C@@H](CCc1ccccc1)N1CCCC1)C(=O)NCc1ccc2c(N)nccc2c1",
    "parameter": "IC50",
    "result": "> 40 µM"
  },
  {
    "input-smiles": "COc1ccc(C[C@H](NC(=O)[C@@H](CCCCN2CCCCC2)NC(C)C)C(=O)NCc2ccc3c(N)nccc3c2)cc1",
    "parameter": "IC50",
    "result": "> 40 µM"
  },
  {
    "input-smiles": "CC(=O)N1C[C@H](c2ccccc2)C[C@H]1C(=O)NCc1ccc2c(N)nccc2c1",
    "parameter": "IC50",
    "result": "> 40 µM"
  },
  {
    "input-smiles": "CC(C)N[C@H](CCc1ccccc1)C(=O)N[C@@H](C)C(=O)NCc1cc2c(N)nccc2o1",
    "parameter": "IC50",
    "result": "> 40 µM"
  },
  {
    "input-smiles": "CC(C)N[C@H](CCCCN1CCCCC1)C(=O)N[C@@H](Cc1ccc(F)c(F)c1)C(=O)NCc1ccc2[nH]cc(Cl)c2c1",
    "parameter": "IC50",
    "result": "10 to 40 µM"
  },
  {
    "input-smiles": "C[C@@H](C(=O)NCc1ccc2c(N)nccc2c1)N(C)C(=O)[C@H](N)CCc1ccccc1",
    "parameter": "IC50",
    "result": "> 40 µM"
  },
  {
    "input-smiles": "CC(C)N[C@H](CCCCN1CCCCC1)C(=O)N[C@@H](Cc1cccc2ccccc12)C(=O)NCc1ccc2c(N)nccc2c1",
    "parameter": "IC50",
    "result": "3 to 10 µM"
  },
  {
    "input-smiles": "COc1cc2c(N)nccc2cc1CNC(=O)[C@H](C)NC(=O)[C@H](N)CCc1ccccc1",
    "parameter": "IC50",
    "result": "3 to 10 µM"
  },
  {
    "input-smiles": "Nc1nccc2cc(CNC(=O)[C@@H]3C[C@@H](c4ccccc4)CN3CC3CCNCC3)ccc12",
    "parameter": "IC50",
    "result": "> 40 µM"
  }
]

----------
target-of-assay: Human Factor XIIa (Homo sapiens)
Construct: purchased Enzyme Research Laboratories
method-notes: Factor XIIa inhibitory activity in vitro (fluorogenic substrate H-DPro-Phe-Arg-AFC)
Format: biochemical
stated-conditions: 25° C., class symbols, read-out: Human FXIIa IC50
pIC50: −log10 of the molar value.
The following compounds are shown together with reported pIC50 values.

[
  {
    "compound": "C[C@@H]1CCC[C@H](C)N1[C@@H](C)C(=O)N[C@@H](Cc1ccc(F)c(F)c1)C(=O)NCc1ccc2c(N)nccc2c1",
    "target-of-assay": "Human Factor XIIa (Homo sapiens)",
    "pIC50": "5.00 to 5.52"
  },
  {
    "compound": "C[C@@H]1CCC[C@H](C)N1CC(=O)NC1(C(=O)NCc2ccc3c(N)nccc3c2)CCC1",
    "target-of-assay": "Human Factor XIIa (Homo sapiens)",
    "pIC50": "5.00 to 5.52"
  },
  {
    "compound": "Nc1nccc2cc(CNC(=O)[C@H](Cc3ccc(F)c(F)c3)NC(=O)c3ccco3)ccc12",
    "target-of-assay": "Human Factor XIIa (Homo sapiens)",
    "pIC50": "5.00 to 5.52"
  },
  {
    "compound": "C[C@H](NC(=O)[C@@H](CCc1ccccc1)NC(=O)c1ccccc1)C(=O)NCc1ccc2c(N)nccc2c1",
    "target-of-assay": "Human Factor XIIa (Homo sapiens)",
    "pIC50": "4.40 to 5.00"
  },
  {
    "compound": "N[C@H](CCCCN1CCCC(F)(F)C1)C(=O)N1CC[C@H]1C(=O)NCc1ccc2[nH]cc(Cl)c2c1",
    "target-of-assay": "Human Factor XIIa (Homo sapiens)",
    "pIC50": "5.00 to 5.52"
  },
  {
    "compound": "CCC(C)[C@@H](N)C(=O)N[C@@H](Cc1cccc2ccccc12)C(=O)NCc1ccc2c(N)nccc2c1 (stereo partly shown)",
    "target-of-assay": "Human Factor XIIa (Homo sapiens)",
    "pIC50": "5.52 to 6.00"
  },
  {
    "compound": "CC(C)c1ncc(C(=O)N[C@@H](Cc2ccc(F)c(F)c2)C(=O)NCc2ccc3c(N)nccc3c2)cn1",
    "target-of-assay": "Human Factor XIIa (Homo sapiens)",
    "pIC50": "5.00 to 5.52"
  }
]
